biological target: UniProt P04629
Sequence (P04629 whole entry): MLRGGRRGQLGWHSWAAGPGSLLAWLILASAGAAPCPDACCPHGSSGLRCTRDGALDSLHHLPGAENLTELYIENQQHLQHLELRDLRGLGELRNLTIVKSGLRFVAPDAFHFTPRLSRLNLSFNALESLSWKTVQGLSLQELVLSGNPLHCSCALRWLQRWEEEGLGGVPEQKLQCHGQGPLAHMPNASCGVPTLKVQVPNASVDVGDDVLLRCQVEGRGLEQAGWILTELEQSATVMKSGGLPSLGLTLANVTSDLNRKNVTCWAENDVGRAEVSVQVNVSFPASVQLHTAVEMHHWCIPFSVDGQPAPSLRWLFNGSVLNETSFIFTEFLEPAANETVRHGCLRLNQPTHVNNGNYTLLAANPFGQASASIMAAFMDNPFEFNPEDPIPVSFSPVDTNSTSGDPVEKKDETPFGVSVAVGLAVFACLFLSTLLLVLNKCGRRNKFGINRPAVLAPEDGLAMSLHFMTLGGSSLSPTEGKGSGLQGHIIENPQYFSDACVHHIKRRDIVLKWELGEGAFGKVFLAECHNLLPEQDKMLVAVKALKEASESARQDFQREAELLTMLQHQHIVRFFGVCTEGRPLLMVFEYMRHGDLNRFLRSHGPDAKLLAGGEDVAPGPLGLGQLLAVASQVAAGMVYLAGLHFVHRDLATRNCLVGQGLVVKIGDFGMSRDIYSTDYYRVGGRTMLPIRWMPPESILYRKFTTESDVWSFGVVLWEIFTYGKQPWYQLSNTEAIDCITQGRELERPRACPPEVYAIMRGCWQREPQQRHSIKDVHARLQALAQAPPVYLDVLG

| recordSmiles | target | IC50 |
| --- | --- | --- |
| O=C(Nc1cccc(-c2csc(N3CCN(CCO)CC3)n2)c1)c1cc(F)cc(F)c1 | UniProt P04629 | > 0.1 µM |

###

biological target: BDNF/NT-3 growth factors receptor (Homo sapiens, UniProt Q16620)
Sequence (Q16620 whole entry): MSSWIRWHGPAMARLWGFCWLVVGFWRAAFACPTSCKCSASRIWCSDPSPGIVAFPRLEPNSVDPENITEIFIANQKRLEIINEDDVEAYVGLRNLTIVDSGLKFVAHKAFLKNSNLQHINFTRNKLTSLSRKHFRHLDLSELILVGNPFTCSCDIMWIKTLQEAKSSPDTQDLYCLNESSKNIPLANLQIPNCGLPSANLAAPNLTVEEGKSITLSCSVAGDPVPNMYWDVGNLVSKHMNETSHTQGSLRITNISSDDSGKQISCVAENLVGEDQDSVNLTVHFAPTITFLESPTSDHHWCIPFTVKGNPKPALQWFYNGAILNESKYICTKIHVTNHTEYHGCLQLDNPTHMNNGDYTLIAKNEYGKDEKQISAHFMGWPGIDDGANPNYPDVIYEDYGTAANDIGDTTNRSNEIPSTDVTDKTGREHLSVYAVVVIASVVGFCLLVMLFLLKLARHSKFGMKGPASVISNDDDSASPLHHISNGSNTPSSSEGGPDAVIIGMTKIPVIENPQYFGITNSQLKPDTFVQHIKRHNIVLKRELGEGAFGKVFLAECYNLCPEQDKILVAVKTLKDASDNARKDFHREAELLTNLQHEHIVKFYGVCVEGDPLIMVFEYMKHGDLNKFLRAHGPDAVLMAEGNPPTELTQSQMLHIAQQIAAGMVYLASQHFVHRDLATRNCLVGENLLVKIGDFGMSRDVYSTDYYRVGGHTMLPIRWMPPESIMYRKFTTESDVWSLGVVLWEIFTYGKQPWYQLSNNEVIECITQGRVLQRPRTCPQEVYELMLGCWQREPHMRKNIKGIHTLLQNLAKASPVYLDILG
pIC50: −log10 of the molar value.

| recordSmiles | target | pIC50 |
| --- | --- | --- |
| O=C(Nc1cccc(-c2csc(N3CCN(CCO)CC3)n2)c1)c1cc(F)cc(F)c1 | BDNF/NT-3 growth factors receptor (Homo sapiens, UniProt Q16620) | < 7.00 |
